Conditions: simulated gastric fluid, pH 4, Pentadecapeptide content decrement (rel. %) in gastric juice at pH = 4.0, 3 hours, pH 4.0; 3 h; 37° C.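 Further: peptide salt at 10 mg/5 ml incubated in artificial gastric juice (HCl, NaCl, pepsin 1.0 g/l) at the listed pH and 37° C, peptide content tracked over time.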
No end group written: not given here.
observed_property: remaining at 3 h

Item: GEPPPGKPADDAGLV [BPC acetate] | remaining at 3 h: 72.5%

----------
Conditions: simulated gastric fluid, pH 3, Pentadecapeptide content decrement (rel. %) in gastric juice at pH = 3.0, 0.5 hours, pH 3.0; 0.5 h; 37° C.
No end group written: not given here.
observed_property: remaining at 0.5 h (%)
Respond numerically; units are % and should not be typed.

Item: GEPPPGKPADDAGLV [Arg-BPC, bepecin L-arginine salt (1:2)] | remaining at 0.5 h: 98.1

----------
Assay: in vitro
Settings: artificial gastric juice with pepsin, pH 3, Pentadecapeptide content decrement (rel. %) in gastric juice at pH = 3.0, 5.0 hours, pH 3.0; 5.0 h; 37° C.
No end group written: not given here.
observed_property: remaining at 5 h, 10 mg/5 ml (%)
Respond numerically; units are % and should not be typed.

Item: GEPPPGKPADDAGLV [Arg-BPC, bepecin L-arginine salt (1:2)] | remaining at 5 h, 10 mg/5 ml: 84.9

----------
Test: in vitro
Conditions: artificial gastric juice with pepsin, pH 3, Pentadecapeptide content decrement (rel. %) in gastric juice at pH = 3.0, 4.0 hours, pH 3.0; 4.0 h; 37° C.
No end group written: not given here.
observed_property: remaining at 4 h, 10 mg/5 ml
Give the figure together with its unit, number first.

Item: GEPPPGKPADDAGLV [Arg-BPC, bepecin L-arginine salt (1:2)] | remaining at 4 h, 10 mg/5 ml: 87.2%

----------
Details: simulated gastric fluid, pH 3, Pentadecapeptide content decrement (rel. %) in gastric juice at pH = 3.0, 3.0 hours, pH 3.0; 3.0 h; 37° C.
No end group written: not given here.
observed_property: remaining at 3 h

Item: GEPPPGKPADDAGLV [BPC acetate] | remaining at 3 h: 2.5%

----------
Test: in vitro
Details: artificial gastric juice with pepsin, pH 2, Pentadecapeptide content decrement (rel. %) in gastric juice at pH = 2.0, 1.0 hours, pH 2.0; 1.0 h; 37° C.
No end group written: not given here.
observed_property: remaining at 1 h (%)
Respond numerically; units are % and should not be typed.

Item: GEPPPGKPADDAGLV [Arg-BPC, bepecin L-arginine salt (1:2)] | remaining at 1 h: 13.5

----------
Experiment: in vitro
Conditions: artificial gastric juice with pepsin, pH 2, Pentadecapeptide content decrement (rel. %) in gastric juice at pH = 2.0, 1.5 hours, pH 2.0; 1.5 h; 37° C.
No end group written: not given here.
observed_property: remaining at 1.5 h, 10 mg/5 ml (%)
Respond numerically; units are % and should not be typed.

Item: GEPPPGKPADDAGLV [Arg-BPC, bepecin L-arginine salt (1:2)] | remaining at 1.5 h, 10 mg/5 ml: 8.2

----------
Conditions: simulated gastric fluid, pH 2, Pentadecapeptide content decrement (rel. %) in gastric juice at pH = 2.0, 2.0 hours, pH 2.0; 2.0 h; 37° C.
No end group written: not given here.
observed_property: remaining at 2 h (%)
Respond numerically; units are % and should not be typed.

Item: GEPPPGKPADDAGLV [BPC acetate] | remaining at 2 h: 2.46

----------
Assay: in vitro
Conditions: artificial gastric juice with pepsin, pH 3, Pentadecapeptide content decrement (rel. %) in gastric juice at pH = 3.0, 0.5 hours, pH 3.0; 0.5 h; 37° C.
No end group written: not given here.
observed_property: remaining at 0.5 h, 10 mg/5 ml (%)
Respond numerically; units are % and should not be typed.

Item: GEPPPGKPADDAGLV [BPC acetate] | remaining at 0.5 h, 10 mg/5 ml: 41.7
